Cited source for all entries: ChEMBL document CHEMBL1961873

Molecular target: cGMP-dependent protein kinase 1 (Homo sapiens) (UniProt Q13976);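 note: listed percent inhibition of PRKG1 is a mean value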
Sequence (Q13976 whole entry): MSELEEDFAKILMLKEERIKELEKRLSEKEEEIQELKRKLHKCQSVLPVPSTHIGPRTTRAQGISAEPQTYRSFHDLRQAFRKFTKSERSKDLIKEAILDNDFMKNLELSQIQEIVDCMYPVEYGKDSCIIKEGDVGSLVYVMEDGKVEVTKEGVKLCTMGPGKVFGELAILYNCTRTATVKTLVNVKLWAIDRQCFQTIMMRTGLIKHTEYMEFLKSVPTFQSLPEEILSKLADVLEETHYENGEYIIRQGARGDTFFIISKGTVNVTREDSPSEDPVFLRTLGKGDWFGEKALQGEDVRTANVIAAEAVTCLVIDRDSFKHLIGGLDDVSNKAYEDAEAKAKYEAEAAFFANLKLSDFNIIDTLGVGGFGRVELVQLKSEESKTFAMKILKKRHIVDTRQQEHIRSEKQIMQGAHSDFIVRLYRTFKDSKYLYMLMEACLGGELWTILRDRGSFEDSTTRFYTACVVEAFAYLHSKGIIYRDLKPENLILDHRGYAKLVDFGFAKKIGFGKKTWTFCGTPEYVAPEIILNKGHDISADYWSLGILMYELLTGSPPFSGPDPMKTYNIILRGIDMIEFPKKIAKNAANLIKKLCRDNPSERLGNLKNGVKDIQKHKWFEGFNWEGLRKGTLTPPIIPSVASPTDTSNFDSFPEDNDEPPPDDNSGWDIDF
Details: at 1 µM
Please mark MET if the recorded inhibition is equal to or greater than 2%, and NOT MET if it falls below.

Please review the following examples before continuing.
O=C(O[C@H]1CN[C@H](C#Cc2cc3ncnc(Nc4ccc5c(ccn5Cc5cc(F)ccc5F)c4)c3s2)C1)N1CCOCC1: MET
Fc1cccc(COc2ccc(Nc3ncncc3C#Cc3ccccc3)cc2Cl)c1: MET

Confirm if inhibition reported for the compound COc1ccc2ncn(-c3cc(O[C@H](C)c4ccccc4C(F)(F)F)c(C(N)=O)s3)c2c1 is 2% or above.
NOT MET

Identify whether the reported inhibition of the following compound is 2% or greater: COc1ccc(-c2nn3ncccc3c2-c2ccnc(Nc3ccc(F)c(F)c3)n2)cc1
MET

Does CCS(=O)(=O)c1ccc(OC)c(Nc2ncc(-c3cccc(F)c3)o2)c1 have a reported inhibition of at least 2%?
MET

Is the recorded value of inhibition equal to or greater than 2% for this compound? CS(=O)(=O)CCNCc1ccc(-c2ccc3ncnc(Nc4ccc(OCc5ccccc5)cc4)c3c2)o1
NOT MET

----------
Biological target: Tyrosine-protein kinase Tec (Homo sapiens) (UniProt P42680)
Sequence (P42680 whole entry): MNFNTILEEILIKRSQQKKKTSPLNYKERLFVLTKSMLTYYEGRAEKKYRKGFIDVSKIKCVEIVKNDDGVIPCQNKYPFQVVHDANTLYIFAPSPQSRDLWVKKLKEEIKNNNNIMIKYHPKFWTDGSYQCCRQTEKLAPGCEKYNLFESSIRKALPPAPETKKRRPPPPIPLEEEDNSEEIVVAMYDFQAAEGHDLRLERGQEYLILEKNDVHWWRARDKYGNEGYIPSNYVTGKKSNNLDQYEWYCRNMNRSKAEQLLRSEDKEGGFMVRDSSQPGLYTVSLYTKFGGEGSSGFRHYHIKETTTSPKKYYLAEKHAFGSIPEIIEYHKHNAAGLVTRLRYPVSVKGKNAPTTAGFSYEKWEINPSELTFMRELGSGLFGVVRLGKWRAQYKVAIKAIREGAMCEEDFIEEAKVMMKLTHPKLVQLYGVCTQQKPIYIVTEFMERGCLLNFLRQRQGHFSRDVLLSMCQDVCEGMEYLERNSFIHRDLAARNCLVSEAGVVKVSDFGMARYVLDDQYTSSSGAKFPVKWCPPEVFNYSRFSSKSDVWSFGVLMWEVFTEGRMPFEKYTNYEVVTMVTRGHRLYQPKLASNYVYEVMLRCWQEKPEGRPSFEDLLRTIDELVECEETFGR
Conditions: at 0.1 µM
Description: GSK_PKIS: TEC mean inhibition at 0.1 uM [Nanosyn]
Each entry belongs to exactly one class, chosen by where its inhibition falls: class A (below 3%), class B (3% to below 5%), class C (5% or more)

Study these solved cases before continuing.
Fc1cccc(COc2ccc(Nc3ncncc3C#Cc3ccccc3)cc2Cl)c1: class B
O=C(Nc1n[nH]c2nnc(-c3cccnc3)cc12)C1CC1: class A
CS(=O)(=O)CCNCc1ccc(-c2ccc3ncnc(Nc4ccc(OCc5ccccc5)cc4)c3c2)o1: class A
c1cnn2ncc(-c3ccnc(NCCCN4CCOCC4)n3)c2c1: class A
COc1cccc(-n2ncc3c(N/N=C/c4ccc(C(=O)NCCN(C)C)cc4)ncnc32)c1: class B
Cc1nnc(-c2cccc(-c3ccc(C(=O)NCC4CC4)cc3)c2)o1: class C
COc1ccccc1-c1cc(/C=C2\C(=O)Nc3ncc(Br)cc32)cc(Br)c1O: class B
c1ccc(-c2n[nH]cc2-c2ccnc(-c3ccc(OCCn4ccnc4)cc3)c2)nc1: class A

Which category fits this record: CN(c1ccc(NC(=O)NCCN2CCOCC2)cc1)c1ccnc(Nc2ccc(CS(C)(=O)=O)cc2)n1
class C

----------
# maps each entry to its inhibition
Test system: Tyrosine-protein kinase ABL1 (Homo sapiens), P00519 [E255K]
Sequence (P00519 whole entry E255K): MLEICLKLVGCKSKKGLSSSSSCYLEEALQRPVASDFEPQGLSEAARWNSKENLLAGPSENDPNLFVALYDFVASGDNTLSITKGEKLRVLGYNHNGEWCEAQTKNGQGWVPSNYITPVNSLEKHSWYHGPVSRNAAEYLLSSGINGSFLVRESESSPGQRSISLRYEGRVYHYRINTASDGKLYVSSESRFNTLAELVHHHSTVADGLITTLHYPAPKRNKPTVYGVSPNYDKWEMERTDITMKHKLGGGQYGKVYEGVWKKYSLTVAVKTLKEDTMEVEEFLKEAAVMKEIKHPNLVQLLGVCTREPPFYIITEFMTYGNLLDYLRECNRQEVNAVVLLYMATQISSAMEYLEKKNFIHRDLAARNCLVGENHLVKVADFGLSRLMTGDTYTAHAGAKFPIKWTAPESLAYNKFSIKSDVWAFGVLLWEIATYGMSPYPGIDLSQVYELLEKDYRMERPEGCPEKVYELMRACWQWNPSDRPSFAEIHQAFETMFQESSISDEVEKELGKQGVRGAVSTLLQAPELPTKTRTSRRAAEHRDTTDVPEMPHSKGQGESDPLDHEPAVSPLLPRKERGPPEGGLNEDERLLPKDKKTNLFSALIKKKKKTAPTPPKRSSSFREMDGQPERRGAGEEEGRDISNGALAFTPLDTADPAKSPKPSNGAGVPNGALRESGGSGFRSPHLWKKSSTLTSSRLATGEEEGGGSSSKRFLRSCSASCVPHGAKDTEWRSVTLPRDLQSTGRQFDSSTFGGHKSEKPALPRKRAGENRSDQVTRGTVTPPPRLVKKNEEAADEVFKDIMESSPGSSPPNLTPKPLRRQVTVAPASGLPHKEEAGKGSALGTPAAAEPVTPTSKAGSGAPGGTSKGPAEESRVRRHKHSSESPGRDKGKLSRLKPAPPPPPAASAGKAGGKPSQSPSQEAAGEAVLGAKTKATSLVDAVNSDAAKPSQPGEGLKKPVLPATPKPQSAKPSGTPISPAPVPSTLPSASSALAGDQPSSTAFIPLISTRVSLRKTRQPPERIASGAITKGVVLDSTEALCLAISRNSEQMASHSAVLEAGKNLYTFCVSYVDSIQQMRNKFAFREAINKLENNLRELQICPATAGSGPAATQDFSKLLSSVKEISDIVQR
Conditions: at 0.1 µM
Value expressed in %; do not type the unit.

// worked examples, inhibition included
CN(C)CCNC(=O)Nc1ccc(N(C)c2ccnc(Nc3ccc(CS(C)(=O)=O)cc3)n2)cc1: 2.92
COc1cc(Nc2ncc(-c3ccccc3)o2)cc(OC)c1: 5.8
COc1cc2c(cc1Nc1nc(Nc3cccc(F)c3C(N)=O)c3cc[nH]c3n1)N(C(=O)CN1CCN(C(C)C)CC1)CC2: -0.8
CN1CCC(n2cnc(-c3ccc(F)cc3)c2-c2ccnc(NCCO)n2)CC1: 2.22

From here, focus on the item given below.
Supply inhibition value. Item: NC(=O)c1ccc2c(-c3ccnc(NCCCO)n3)c(-c3ccc(F)cc3)nn2c1
4.7

----------
Biological target: Angiopoietin-1 receptor (Homo sapiens) (UniProt Q02763)
Sequence (Q02763 whole entry): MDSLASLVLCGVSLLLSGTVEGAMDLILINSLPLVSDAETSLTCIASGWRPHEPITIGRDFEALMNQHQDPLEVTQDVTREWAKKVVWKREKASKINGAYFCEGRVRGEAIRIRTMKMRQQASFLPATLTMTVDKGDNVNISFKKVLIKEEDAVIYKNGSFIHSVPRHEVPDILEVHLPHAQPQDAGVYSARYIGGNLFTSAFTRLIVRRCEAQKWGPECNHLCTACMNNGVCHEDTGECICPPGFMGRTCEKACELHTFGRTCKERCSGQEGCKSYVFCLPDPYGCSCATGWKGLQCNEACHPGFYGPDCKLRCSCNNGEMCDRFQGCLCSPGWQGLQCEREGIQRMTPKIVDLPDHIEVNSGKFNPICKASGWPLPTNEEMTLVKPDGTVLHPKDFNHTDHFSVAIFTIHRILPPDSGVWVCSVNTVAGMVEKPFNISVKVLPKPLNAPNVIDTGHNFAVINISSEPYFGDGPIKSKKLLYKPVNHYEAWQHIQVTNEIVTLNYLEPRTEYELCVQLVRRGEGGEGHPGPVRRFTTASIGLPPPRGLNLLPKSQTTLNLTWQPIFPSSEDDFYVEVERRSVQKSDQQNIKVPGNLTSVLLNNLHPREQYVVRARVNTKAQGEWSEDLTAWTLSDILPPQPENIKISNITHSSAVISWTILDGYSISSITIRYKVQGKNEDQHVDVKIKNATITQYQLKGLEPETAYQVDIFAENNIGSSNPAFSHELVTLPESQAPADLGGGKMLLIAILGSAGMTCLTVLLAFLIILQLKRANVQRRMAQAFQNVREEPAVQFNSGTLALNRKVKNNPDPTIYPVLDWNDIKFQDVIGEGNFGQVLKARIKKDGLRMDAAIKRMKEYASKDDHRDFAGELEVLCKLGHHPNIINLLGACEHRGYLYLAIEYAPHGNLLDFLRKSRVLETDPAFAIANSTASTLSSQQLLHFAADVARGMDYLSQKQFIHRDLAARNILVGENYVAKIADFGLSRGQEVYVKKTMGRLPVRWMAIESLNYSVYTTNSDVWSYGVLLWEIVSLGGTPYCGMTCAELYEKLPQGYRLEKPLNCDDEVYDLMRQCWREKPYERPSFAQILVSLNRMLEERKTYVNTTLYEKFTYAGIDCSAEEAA
Conditions: at 0.1 µM
Description: GSK_PKIS: TIE2 mean inhibition at 0.1 uM [Nanosyn]
// inhibition lookup, one value per entry
Report only the number, with the unit % understood.

Consider the following illustrative entries.
COc1cc(N2CCN(C(C)C)CC2)ccc1Nc1nc(Nc2cccc3ncccc23)c2cc[nH]c2n1: 3.15
CN1CCC(n2cnc(-c3ccc(F)cc3)c2-c2ccnc(NCCO)n2)CC1: 1.8
Cc1c2ccc(N(C)c3ccnc(Nc4cccc(S(N)(=O)=O)c4)n3)cc2nn1C: 12.4
O=C(Nc1n[nH]c2nnc(-c3cccnc3)cc12)C1CC1: 1.38
FC(F)(F)CNc1nccc(-c2cnn3ncccc23)n1: 1.95
COc1c(C(N)=O)cc(-c2ccc(Cl)cc2)cc1-c1ccc(S(N)(=O)=O)cc1: 5.29
CNC(=O)c1ncccc1Nc1nc(Nc2cc3c(cc2OC)CCCN3C(=O)CN(C)C)nc2[nH]ccc12: 1.81
CNC(=O)c1cncc(/C=C/c2ccccc2C)c1: 1.59
COc1cccc(Nc2nccc(-c3cnn4ncccc34)n2)c1: 5.94

# next compound below
Please indicate inhibition recorded for CCS(=O)(=O)c1ccc(OC)c(Nc2ncc(-c3cccc(C(C)=O)c3)o2)c1
2.09
